# System: Fusarium culmorum
# protocol_notes: in vitro-Test with fungal microorganisms, Method B (tables G5-G15)
# Format: cell-based
# study_conditions: Fusarium culmorum, 1 ppm, alone; read-out: Efficacy
readout_kind: inhibition of growth at 1 ppm
Please state the number and follow it with the unit.

Please review the entries below; each comes with its answer.
>>> df
                                   molecule  result
0  COc1cc(C)c(C(=O)c2c(OC)ccc(Br)c2C)c(OC)c1OC      4%
1  Cc1ccc(C[C@H]2CON=C(c3cc(C)nnc3Oc3cccc(Cl)c3F)N2)c(Cl)c1     99%
2  CC(C)(C)C(O)(CCc1ccc(Cl)cc1)Cn1cncn1 (centres unmarked)     79%

Quick batch: inhibition of growth at 1 ppm for everything below.
1. N#Cc1c[nH]cc1-c1cccc2c1OC(F)(F)O2
2. Cc1ccc(C[C@@H]2CON=C(c3cc(C)nnc3Oc3cccc(Cl)c3F)N2)c(Cl)c1

-- reply
68%
0%
